Data origin: PubChem BioAssay (NCI)

- System: HCC-2998 colon
- protocolText: NCI-60 one-dose screen, 48 h (100 = growth as untreated, 0 = no growth, -100 = all killed)
- experimentalParameters: 10 µM unless noted
About 83,000 compounds went through this panel and 20% of them were active in at least one assay; those are over-represented in the sample as a whole.
Assign true (1) to entries whose growth meets or exceeds 70%; assign false (0) to the rest.

Q) Determine whether measured growth meets or exceeds 70% for CCN(CC)CCN(CCN(CC)CC)c1ccccc1
A) true (1)

Q) Determine whether measured growth meets or exceeds 70% for COc1ccc(C2=NN(C(=O)c3cc(OC)c(OC)c(OC)c3)C(c3ccc(N(C)C)cc3)C2)cc1 (stereo unspecified)
A) false (0)

Q) Determine whether measured growth meets or exceeds 70% for O=C(/C=C/C12c3ccccc3C(c3ccccc31)C1C(=O)NC(=O)C12)c1ccc(F)cc1 (stereo unspecified)
A) false (0)

Q) Determine whether measured growth meets or exceeds 70% for COc1cc(Nc2c3ccc(Cl)cc3nc3ccc(OC)cc23)c2ncccc2c1
A) false (0)

Q) Determine whether measured growth meets or exceeds 70% for CC[C@H](CC[C@@H](C)[C@H]1CC[C@H]2[C@@H]3CC[C@@H]4CC(=O)/C(=C\c5ccncc5)C[C@]4(C)[C@H]3CC[C@]12C)C(C)C
A) true (1)

Q) Determine whether measured growth meets or exceeds 70% for COc1cc(C(=O)/C=C/c2c(-c3cccs3)nc3ccccn23)cc(OC)c1OC
A) false (0)

Q) Determine whether measured growth meets or exceeds 70% for O=C1Nc2ccc(F)cc2/C1=C\c1nc(-c2ccccc2F)n2ccccc12
A) true (1)

Q) Determine whether measured growth meets or exceeds 70% for CCOC(=O)NN1CC(O)=C(c2nc(-c3ccc(Br)cc3)cs2)C1=N
A) true (1)

Q) Determine whether measured growth meets or exceeds 70% for CCCC(O)Cn1ncc(C(=O)OCC)c1NC(=O)NCc1cccc(F)c1 (stereo unspecified)
A) true (1)

Q) Determine whether measured growth meets or exceeds 70% for C#CC#CC#CC#CC#CC#CC#CC#CC[C@H]1OC[C@H](COC(=O)O[C@@H](C(=O)O[C@H]2C[C@@]3(O)[C@@H](OC(=O)c4ccccc4)[C@@H]4[C@]5(OC(C)=O)CO[C@@H]5C[C@H](O)[C@@]4(C)C(=O)[C@H](OC(C)=O)C(=C2C)C3(C)C)[C@@H](NC(=O)c2ccccc2)c2ccccc2)O1
A) false (0)

Q) Determine whether measured growth meets or exceeds 70% for O=C(Nc1cccnc1Nc1ccc(Cl)cc1)c1cn(Cc2ccc(F)cc2)nn1
A) true (1)

Q) Determine whether measured growth meets or exceeds 70% for COC(=O)C1=Nc2ccc(F)cc2/C1=C\c1sc(Nc2ccc(O)cc2)nc1O
A) true (1)

Q) Determine whether measured growth meets or exceeds 70% for C/C(=N\O)C(=O)NCCCCCC(=O)Nc1ccccc1
A) true (1)

Q) Determine whether measured growth meets or exceeds 70% for COc1ncc2cc1NS(=O)(=O)c1cccc(c1)C(=O)NCC1=CC=C(S1)c1ncnc3c1SC2=C3C
A) false (0)

Q) Determine whether measured growth meets or exceeds 70% for CCc1ccc(CCC(=O)Nc2ncc(Cc3ccc(Cl)cc3)s2)o1
A) false (0)

Q) Determine whether measured growth meets or exceeds 70% for O=C(Nc1nc(C(=O)N2CCN(C(c3ccccc3)c3ccccc3)CC2)cs1)c1ccc(NC2CCCCC2)c([N+](=O)[O-])c1
A) true (1)

Q) Determine whether measured growth meets or exceeds 70% for Oc1c(I)cc(-c2nc3ccccc3s2)cc1CN(Cc1ccccn1)Cc1ccccn1
A) false (0)

Q) Determine whether measured growth meets or exceeds 70% for Cc1ccc(Nc2nc(-c3ccc(F)cc3)c(C#N)c(=O)n2C)cc1
A) true (1)

Q) Determine whether measured growth meets or exceeds 70% for COP(=O)(OC)c1nnn(-c2cccc([N+](=O)[O-])c2)c1C
A) true (1)

Q) Determine whether measured growth meets or exceeds 70% for c1ccc(CNc2ccc3nc(CCC4CCCCC4)[nH]c3c2)cc1
A) false (0)

Q) Determine whether measured growth meets or exceeds 70% for Cc1cc(N2CCCCC2)nc(N2CCN(CC(=O)Nc3ccc4c(ccn4Cc4ccccc4)c3)CC2)n1
A) true (1)

Q) Determine whether measured growth meets or exceeds 70% for C/C(C=O)=C\c1ccc2c(c1)OCO2
A) true (1)

Q) Determine whether measured growth meets or exceeds 70% for CC[C@]12C=CCN3CC[C@@]4(c5ccc(OC)cc5N(C)[C@H]4[C@@](O)(C(=O)OC)[C@@H]1OC(=O)CCCN1CCOCC1)[C@@H]32
A) true (1)

Q) Determine whether measured growth meets or exceeds 70% for COc1ccc(C/C(C)=C(/c2ccc(OCCN3CCCCCC3)cc2)c2ccc(OC(=O)NCc3ccccc3)cc2)cc1
A) true (1)

Q) Determine whether measured growth meets or exceeds 70% for COc1cc(/C=C2\C(=O)N(c3c(Cl)cccc3Cl)c3ccccc32)cc(OC)c1OCCCCCCn1c2ccccc2c(=O)c2ccccc21
A) true (1)

Q) Determine whether measured growth meets or exceeds 70% for N#Cc1nc(-c2ccc(F)cc2)oc1S(=O)(=O)N1CCN(c2ccc(F)cc2)CC1
A) true (1)

Q) Determine whether measured growth meets or exceeds 70% for CCn1cc(CNc2ccc(C(=O)Nc3cc4cc(OC)c(OC)cc4c(C)n3)cc2)c(C)n1
A) false (0)

Q) Determine whether measured growth meets or exceeds 70% for COc1ccc(-c2nnc(SCC(=O)Nc3ccc(/C(C)=N\O)cc3)n2-c2ccccc2)cc1OC
A) true (1)

Q) Determine whether measured growth meets or exceeds 70% for CCOC(=O)/C=C/c1c(C)[nH]c(=O)[nH]c1=O
A) true (1)

Q) Determine whether measured growth meets or exceeds 70% for N=C(N)c1ccc(-c2ccc(-c3ccc(Cl)cc3Cl)s2)cc1F
A) false (0)

Q) Determine whether measured growth meets or exceeds 70% for CCN(CC)CCOc1ccc(Nc2ncc3cc(-c4ccc(O)cc4)c(=O)n(C)c3n2)cc1
A) true (1)

Q) Determine whether measured growth meets or exceeds 70% for CCOC(=O)n1cc(-c2nonc2-c2cn(C)c3ccccc23)c2ccccc21
A) false (0)

Q) Determine whether measured growth meets or exceeds 70% for C=C(CN1CC=CCC1)[C@@H]1CC[C@]2(CO)CC[C@]3(C)[C@H](CC[C@@H]4[C@@]5(C)CC[C@H](O)C(C)(C)[C@@H]5CC[C@]43C)[C@@H]12
A) true (1)

Q) Determine whether measured growth meets or exceeds 70% for CC(C)CCSc1nc(Nc2ccccc2)c(C#N)c(-c2ccccc2)n1
A) false (0)

Q) Determine whether measured growth meets or exceeds 70% for COc1ccc2c(c1)c(-c1ccc(-c3cn(C)c4ccc(OC)cc34)[nH]1)cn2C
A) false (0)

----------
- Test system: SK-OV-3 ovarian
- protocolText: NCI-60 one-dose screen, 48 h (100 = growth as untreated, 0 = no growth, -100 = all killed)
- experimentalParameters: 10 µM unless noted
About 83,000 compounds went through this panel and 20% of them were active in at least one assay; those are over-represented in the sample as a whole.
Please go through the items and note down their growth.
# number only, unit % dropped from output

Q) I would be grateful if you could share the reported growth for COc1cccc(NC(=O)c2cccc(C3CCc4c(cc(OC)c(OC)c4OC)O3)c2)c1 (stereo not given) .
A) 71.7

Q) I would be grateful if you could share the reported growth for O=C(/C=C/c1cccc(Cl)c1)c1cccc(OCCCCOc2cccc(C(=O)/C=C/c3cccc(Cl)c3)c2)c1 .
A) 113

Q) I would be grateful if you could share the reported growth for CN1C(=O)N(C)C2C1NC(=S)N2/N=C/C=C/c1ccccc1[N+](=O)[O-] (stereo not given) .
A) 27

Q) I would be grateful if you could share the reported growth for CC(=O)N(Cc1ccccc1)c1nc2ccc(O)c(CN(C)C)c2s1 .
A) 104

Q) I would be grateful if you could share the reported growth for COc1ccc(-c2cc(C(=O)N3N=C(c4ccc(N)cc4)CC3c3ccccc3)c3ccccc3n2)cc1 (stereo not given) .
A) 34.9

Q) I would be grateful if you could share the reported growth for Nc1c(C(=O)O)cc(Cl)cc1[N+](=O)[O-] .
A) 101

Q) I would be grateful if you could share the reported growth for C#CCOc1cccc(-c2ncc3cc(NC(=O)CCl)ccc3n2)c1 .
A) 76.8

Q) I would be grateful if you could share the reported growth for CC(C)(C)C(=O)/C=C/c1ccc([N+](=O)[O-])cc1 .
A) 98.7

Q) I would be grateful if you could share the reported growth for C=NNc1ccccc1 .
A) 102

Q) I would be grateful if you could share the reported growth for CCN=C1C=CC(=C(c2ccc(N(C)C)cc2)c2ccc(N(C)C)cc2)c2ccccc21 .
A) -35.2

----------
- Test system: OVCAR-8 ovarian
- protocolText: NCI-60 one-dose screen, 48 h (100 = growth as untreated, 0 = no growth, -100 = all killed)
- experimentalParameters: 10 µM unless noted
About 83,000 compounds went through this panel and 20% of them were active in at least one assay; those are over-represented in the sample as a whole.
Assign YES to entries whose growth meets or exceeds 90%; assign NO to the rest.

Q) Determine whether measured growth meets or exceeds 90% for CCOc1ccc(/C=N\N=C\c2ccc(OCC)cc2)cc1
A) NO

Q) Determine whether measured growth meets or exceeds 90% for CC(CN)[C@@H]1CC[C@]2(CO)CC[C@]3(C)[C@H](CC[C@@H]4[C@@]5(C)CCC(N)C(C)(C)[C@@H]5CC[C@]43C)[C@@H]12 (stereo partly drawn)
A) NO

Q) Determine whether measured growth meets or exceeds 90% for Nc1c(C(=O)O)cc(Cl)cc1[N+](=O)[O-]
A) YES

Q) Determine whether measured growth meets or exceeds 90% for C[C@@H]1CC[C@@]2(OC1)O[C@H]1C[C@H]3[C@@H]4CC=C5C[C@@H](O[C@@H]6O[C@H](CO)[C@@H](O[C@@H]7O[C@@H](CO)[C@H](O)[C@H]7O)[C@H](O)[C@H]6O[C@@H]6O[C@@H](C)[C@H](O)[C@@H](O)[C@H]6O)CC[C@]5(C)[C@H]4CC[C@]3(C)[C@H]1[C@@H]2C
A) NO

Q) Determine whether measured growth meets or exceeds 90% for O=C(Nc1ccccc1O)c1ccccc1Nc1ccnc(C(F)(F)F)c1
A) YES

Q) Determine whether measured growth meets or exceeds 90% for C=C(c1ccc(C(=O)O)cn1)c1cc2c(cc1C)C(C)(C)CCC2(C)C
A) NO
